Data credit: patent US20240076386A1

Biological target: T1, human E-selectin extracellular domain with 10 His purification tail (human, UniProt P16581 22-556)
T1 construct: also called soluable human E-selectin extracellular domain; rhE-Selectin
T1 sequence: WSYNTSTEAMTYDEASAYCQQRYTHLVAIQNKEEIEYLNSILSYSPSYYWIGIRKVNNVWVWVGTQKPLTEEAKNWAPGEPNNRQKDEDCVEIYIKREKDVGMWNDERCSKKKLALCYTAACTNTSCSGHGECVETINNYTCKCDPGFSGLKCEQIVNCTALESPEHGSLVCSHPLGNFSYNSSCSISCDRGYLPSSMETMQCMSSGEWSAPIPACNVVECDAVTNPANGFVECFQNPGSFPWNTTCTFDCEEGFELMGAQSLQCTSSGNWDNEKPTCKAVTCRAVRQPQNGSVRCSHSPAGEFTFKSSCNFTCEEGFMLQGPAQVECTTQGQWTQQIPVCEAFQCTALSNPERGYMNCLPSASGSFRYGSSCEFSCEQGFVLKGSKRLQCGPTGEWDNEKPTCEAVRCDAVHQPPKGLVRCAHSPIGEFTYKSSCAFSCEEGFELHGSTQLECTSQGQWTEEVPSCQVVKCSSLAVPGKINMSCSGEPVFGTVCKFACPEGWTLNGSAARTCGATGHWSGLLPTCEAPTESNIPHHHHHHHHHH
Test: SPR, antibody captured, E-selectin analyte
I'd be grateful if you could share measured t½ for these entries.
Answers are plain numbers, in s.

Answered cases to consult:
optimized anti-E-selectin antibody 1448 (antibody, human IgG1, kappa, V domains shown, effector-null human IgG1, kappa) VH: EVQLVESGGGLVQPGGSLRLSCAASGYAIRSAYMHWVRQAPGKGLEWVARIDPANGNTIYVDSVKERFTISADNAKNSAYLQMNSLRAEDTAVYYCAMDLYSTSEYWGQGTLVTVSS VL: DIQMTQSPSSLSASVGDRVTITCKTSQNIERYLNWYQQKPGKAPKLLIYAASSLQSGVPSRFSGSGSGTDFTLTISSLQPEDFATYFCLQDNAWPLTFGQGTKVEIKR	55
optimized anti-E-selectin antibody 1282 (antibody, human IgG1, kappa, V domains shown, effector-null human IgG1, kappa) VH: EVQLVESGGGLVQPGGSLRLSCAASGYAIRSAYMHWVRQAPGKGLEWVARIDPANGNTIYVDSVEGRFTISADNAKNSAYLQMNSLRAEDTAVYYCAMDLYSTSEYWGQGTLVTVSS VL: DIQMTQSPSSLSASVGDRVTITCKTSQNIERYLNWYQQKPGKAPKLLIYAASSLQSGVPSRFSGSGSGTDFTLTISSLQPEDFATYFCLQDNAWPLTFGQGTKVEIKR	49.3

Ask: Indicate its recorded t½; the binder in question is optimized anti-E-selectin antibody 1284 (antibody, human IgG1, kappa, V domains shown, effector-null human IgG1, kappa) VH: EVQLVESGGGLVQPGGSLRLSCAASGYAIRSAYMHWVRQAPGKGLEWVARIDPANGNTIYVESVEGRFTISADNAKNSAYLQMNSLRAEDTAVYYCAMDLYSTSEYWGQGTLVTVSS VL: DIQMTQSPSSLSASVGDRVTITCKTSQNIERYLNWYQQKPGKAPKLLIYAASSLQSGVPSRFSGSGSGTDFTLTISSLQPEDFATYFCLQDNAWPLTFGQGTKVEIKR
Reply: 48
